procedure.summary: human hepatoma cell viability loss – ATP luminescence, cytotoxicity control for P. falciparum antimalarial project, primary screen (AID 2303);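 also: 0% = DMSO wells and 100% = digitonin-killed cells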
test.conditions: HepG2 viability, 24-48 h, at 10 µM, stronger effect = higher value
Binary label based on inhibition with cut-off 20%: below gives 1, not below gives 0.

// query Bench note: check whether COc1ccc(C(=O)Nc2ccc(-c3nc4ccc(C)cc4[nH]3)cc2)cc1OC shows inhibition below 20%
// result 0

// query Bench note: check whether Cc1cc(N[C@@H](CC(C)C)C(=O)NCc2cccc(F)c2)nc(NCC2CCCCC2)n1 shows inhibition below 20%
// result 1

// query Bench note: check whether CC(Oc1c(C2CCN(CCCCNC(=O)c3ccc(-c4ccc(Cl)cc4)cc3)CC2)ccc2c1CCCC2)C(N)=O (centres undefined) shows inhibition below 20%
// result 0

// query Bench note: check whether CCN(CCCN1CCCCC1)c1cc(C)nc(Nc2ccc(Cl)cc2C)n1 shows inhibition below 20%
// result 0

// query Bench note: check whether CN1CCC(N2CCN(Cc3cccc(-c4ccc(-c5nc6ccc(F)cc6[nH]5)cc4)c3)CC2)CC1 shows inhibition below 20%
// result 0

// query Bench note: check whether CC(Cc1ccc(CN(CC(N)=O)Cc2ccc(CC(C)NCCc3cccc(Cl)c3)cc2)cc1)NCCc1cccc(Cl)c1 (centres undefined) shows inhibition below 20%
// result 0

// query Bench note: check whether Cc1cccc2[nH]c(-c3ccc(-c4cccc(CNCCNC(=O)c5ccnn5C)c4)cc3)nc12 shows inhibition below 20%
// result 1

// query Bench note: check whether O=C(NCCCCN1CCC(c2ccc3c(c2OCCN2CCCC2=O)CCCC3)CC1)c1ccc(-c2ccc(C(F)(F)F)cc2)cc1 shows inhibition below 20%
// result 0

// query Bench note: check whether C(=NNc1ccnc2ccccc12)c1ccncc1 shows inhibition below 20%
// result 1

// query Bench note: check whether O=C(Cn1c(CCc2cccc(F)c2F)cc(=O)c2cccnc21)N(CCCn1ccnc1)Cc1ccc(-c2ccc(C(F)(F)F)cc2)cc1 shows inhibition below 20%
// result 0

// query Bench note: check whether CCC(NC(=O)c1ccccc1NC(=O)c1ccc(C)cc1)C(=O)OC (centres undefined) shows inhibition below 20%
// result 1

// query Bench note: check whether CCCCOc1ccc(N2C(N)=NC(N)=NC2(C)C)cc1 shows inhibition below 20%
// result 1

// query Bench note: check whether Cc1cc([N+](=O)[O-])ccc1NC(=O)Nc1cccc(C(F)(F)F)c1 shows inhibition below 20%
// result 1

// query Bench note: check whether Cn1cncc1C(=O)Nc1cccc(-c2ccc(-c3nc4ccccc4[nH]3)s2)c1 shows inhibition below 20%
// result 1

// query Bench note: check whether Cc1cc(NCCc2ccc(O)cc2)nc(NCC(c2ccccc2)c2ccccc2)n1 shows inhibition below 20%
// result 0

// query Bench note: check whether Nc1ccc(-c2nc3ccc(Oc4ccc5nc(-c6ccc(N)cc6)[nH]c5c4)cc3[nH]2)cc1 shows inhibition below 20%
// result 1

// query Bench note: check whether CCCCCC(=O)NCC(NCCCNc1cc(=O)c2ccccc2[nH]1)c1cc(Br)cc(Br)c1 (centres undefined) shows inhibition below 20%
// result 1

// query Bench note: check whether COCCCNC(=O)[C@H]1CNCCN1C(=O)c1ccccc1 shows inhibition below 20%
// result 0

// query Bench note: check whether Cc1ccc(Cn2cnc3cc(C(=O)Nc4ccc(-c5ccc(CN(C)C)cc5)cc4)ccc3c2=O)o1 shows inhibition below 20%
// result 0

###

assayed.system: Calcium-dependent protein kinase 4 (Plasmodium falciparum (isolate 3D7))
procedure.summary: PfCDPK4 kinase inhibitors, biochemical, TCAMS library (AID 1159588)
test.conditions: recombinant PfCDPK4, Kinase-Glo ATP depletion luminescence
Entries with a potency or affinity are not part of this list. Calls of active or inactive are those of the source. No cut-off is given here; in the data, nearly all actives have IC50 up to about 0.91 µM.
attribute.measured: outcome

Some entries whose results are on file:
// query Given O=[N+]([O-])c1cccc(CNC2CCN(Cc3ccc(C(F)(F)F)cc3)CC2)c1 , respond with its outcome.
// result inactive

// query Given Nc1nc(F)nc2nc[nH]c12 , respond with its outcome.
// result inactive

// query Given NC(=O)c1ccc(C(=O)Nc2cccc(-c3csc(-c4nc5ccccc5[nH]4)c3)c2)cc1 , respond with its outcome.
// result inactive

// query Given Cn1cnc(CCNC(=O)c2cccc(-c3cccc(-c4nc5ccc(C(F)(F)F)cc5[nH]4)c3)c2)c1 , respond with its outcome.
// result inactive

// query Given CC(CN1CCN(C)CC1)C(=O)Nc1cccc(-c2cccc(-c3nc4ccc(F)cc4[nH]3)c2)c1 (centres undefined) , respond with its outcome.
// result inactive

New cases:
// query Given CC(C)c1cc(C(=O)N[C@@H](Cc2ccccc2)[C@H](O)CNC2CCCCC2)cc(N2CCCC2=O)c1 , respond with its outcome.
// result inactive

// query Given Cc1cccc2[nH]c(-c3ccc(-c4cccc(CNCCc5ccncc5)c4)s3)nc12 , respond with its outcome.
// result inactive

###

Please respond with reported growth inhibition for every item in the list.
procedure.summary: inhibition of 3D7 malaria parasite growth – strain 3D7 (AID 2306);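 also: 0% = DMSO wells and 100% = chloroquine plus artemisinin control wells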
test.conditions: P. falciparum 3D7 erythrocytic growth, LDH absorbance, 72 h; at 2 µM; stronger effect = higher value
Active and inactive are the calls of the source. How the calls were made is not given here.

// query Given CCCN1CCN(Cc2ccc(C(=O)Nc3ccc(Cl)cc3)cc2)CC1 , respond with its growth inhibition.
// result 94% (active)

// query Given Cc1cnc(Nc2ccccc2)nc1NCCC(=O)Nc1ccccc1 , respond with its growth inhibition.
// result 89% (active)

// query Given COc1cc([N+](=O)[O-])ccc1NC(=O)Nc1ccc(OC(F)(F)F)cc1 , respond with its growth inhibition.
// result 84% (active)

// query Given Cc1nc2ccc(/C=C/C(=O)NC3CCC(CCN4CCc5ccc(C#N)cc5CC4)CC3)cc2[nH]1 (stereo not given) , respond with its growth inhibition.
// result 88% (active)

// query Given COc1ccc(Cn2ncc3c4c(N)nc(N)nc4ccc32)cc1OC , respond with its growth inhibition.
// result 94% (active)

###

procedure.summary: human hepatoma cell viability loss – ATP luminescence, cytotoxicity control for P. falciparum antimalarial project, primary screen (AID 2303);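 also: 0% = DMSO wells and 100% = digitonin-killed cells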
test.conditions: HepG2 viability, 24-48 h, at 10 µM, stronger effect = higher value
Activity calls are given as the source filed them.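 Rule for the calls: active = inhibition above 50%; inactive = the rest.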
attribute.measured: inhibition

// query Given CCCCCCCc1c(C)[nH]c2ccccc2c1=O , respond with its inhibition.
// result -14% (inactive)

// query Given O=C1CCCN1CCCNCc1ccc(-c2ccc(-c3nc4ccc(C(F)(F)F)cc4[nH]3)cc2)cc1 , respond with its inhibition.
// result 10% (inactive)

// query Given COc1ccc(N2C(N)=NC(N)=NC2(C)C)cc1OC , respond with its inhibition.
// result 13% (inactive)

// query Given Cc1ccc(C2(C)CN(CCCOc3cccc(-c4ccc(C(=O)NC(C)C)cc4)c3)CCO2)cc1 (stereo not given) , respond with its inhibition.
// result 15% (inactive)

// query Given O=C(NC1CC1)c1cnc(N2CCC(Cc3ccccc3)CC2)c(Cl)c1 , respond with its inhibition.
// result 10% (inactive)

###

procedure.summary: antimalarial activity against Dd2 strain (AID 2302);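 also: 0% = DMSO untreated growth and 100% = chloroquine plus artemisinin killed control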
test.conditions: P. falciparum Dd2 in RBCs, LDH growth readout, 72 h; at 2 µM; stronger effect = higher value
Please respond with reported growth inhibition for every item in the list.
Numeric answer only, unit % assumed.

// query Given CC(=O)Nc1cccc(C(=O)Nc2ccc(-c3cccc(-c4nc5c(C)cccc5[nH]4)c3)cc2)c1 , respond with its growth inhibition.
// result 50

// query Given Cc1nc(-c2cccc(Nc3nccc(NCC(O)c4ccccc4)n3)c2)cs1 (stereo not given) , respond with its growth inhibition.
// result 82

// query Given O=C(Nc1ccc(-c2nc3ccccc3[nH]2)cc1)C1CCN(Cc2cccc(F)c2F)CC1 , respond with its growth inhibition.
// result 51

// query Given COc1ccc(-c2cccc(CNC3CCN(CC4Cn5c(=O)ccc6ccc(F)c4c65)CC3)c2)cc1 (stereo not given) , respond with its growth inhibition.
// result 74

// query Given O=C(NC1CCN(Cc2ccc(O)cc2)CC1)c1ccc(Cl)c(Cl)c1 , respond with its growth inhibition.
// result 3

###

assayed.system: Protein kinase 7 (PK7), Plasmodium falciparum 3D7 (PF3D7_0213400) (UniProt Q7YTF7)
procedure.summary: inhibition of Plasmodium PK7 catalytic activity – biochemical, TCAMS antimalarial set, Kinase-Glo luminescence (AID 1159587)
test.conditions: recombinant PfPK7, Kinase-Glo ATP depletion luminescence
Activity calls are given as the source filed them. How the calls were made is not given here.
attribute.measured: outcome

Some entries whose results are on file:
// query Given Cn1cnc(-c2ccc3c(c2)CCN(CCC2CCC(NC(=O)/C=C/c4ccc(F)cc4)CC2)CC3)c1 (centres undefined) , respond with its outcome.
// result inactive

// query Given O=S(=O)(NCCN1CCCC1)c1ccc(-c2ccc(CNCc3ccc(F)cc3)cc2)cc1 , respond with its outcome.
// result inactive

// query Given Cc1cccc2[nH]c(-c3ccc(-c4ccc(CNCc5ccccc5)cc4)s3)nc12 , respond with its outcome.
// result inactive

// query Given COc1ccc(CN(C)CC(O)COc2ccc(NC(=O)c3cccc4c(=O)c5cccc(OC)c5[nH]c34)cc2)cc1OC (centres undefined) , respond with its outcome.
// result inactive

// query Given COc1cccc(Nc2nc(N)c3ccccc3n2)c1 , respond with its outcome.
// result inactive

New cases:
// query Given CC(C)(C)c1ccc(CN2CCC(NC(=O)c3ccc(-c4ccccc4F)s3)CC2)cc1 , respond with its outcome.
// result inactive

// query Given C=C[C@]1(C)C[C@@H](OC(=O)NC(=O)CCCS(=O)(=O)c2nnc(C)s2)[C@]2(C)[C@H](C)CC[C@]3(CCC(=O)[C@H]32)[C@@H](C)[C@@H]1O , respond with its outcome.
// result inactive

// query Given Cc1cccc2[nH]c(-c3ccc(-c4ccc(NC(=O)CN5CCN(C)CC5)cc4)cc3)nc12 , respond with its outcome.
// result inactive
